Data origin: patent US8778951B2

Provide the recorded IC50 for the entries that follow.
# TESTED_TARGET: Cdk9/cyclinT1 (Homo sapiens (Human), UniProt P50750)
# Sequence (P50750 whole entry): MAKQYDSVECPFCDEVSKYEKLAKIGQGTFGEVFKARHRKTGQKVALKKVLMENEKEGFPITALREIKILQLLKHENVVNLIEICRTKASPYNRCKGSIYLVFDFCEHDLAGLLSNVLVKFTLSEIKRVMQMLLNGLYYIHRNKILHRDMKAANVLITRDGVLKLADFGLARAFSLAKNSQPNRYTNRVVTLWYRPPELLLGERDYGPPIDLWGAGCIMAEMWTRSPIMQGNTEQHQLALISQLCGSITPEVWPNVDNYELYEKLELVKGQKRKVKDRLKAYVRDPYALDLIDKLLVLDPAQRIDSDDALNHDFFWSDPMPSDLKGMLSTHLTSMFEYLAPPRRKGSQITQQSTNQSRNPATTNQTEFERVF
# Sequence (O60563 whole entry partner): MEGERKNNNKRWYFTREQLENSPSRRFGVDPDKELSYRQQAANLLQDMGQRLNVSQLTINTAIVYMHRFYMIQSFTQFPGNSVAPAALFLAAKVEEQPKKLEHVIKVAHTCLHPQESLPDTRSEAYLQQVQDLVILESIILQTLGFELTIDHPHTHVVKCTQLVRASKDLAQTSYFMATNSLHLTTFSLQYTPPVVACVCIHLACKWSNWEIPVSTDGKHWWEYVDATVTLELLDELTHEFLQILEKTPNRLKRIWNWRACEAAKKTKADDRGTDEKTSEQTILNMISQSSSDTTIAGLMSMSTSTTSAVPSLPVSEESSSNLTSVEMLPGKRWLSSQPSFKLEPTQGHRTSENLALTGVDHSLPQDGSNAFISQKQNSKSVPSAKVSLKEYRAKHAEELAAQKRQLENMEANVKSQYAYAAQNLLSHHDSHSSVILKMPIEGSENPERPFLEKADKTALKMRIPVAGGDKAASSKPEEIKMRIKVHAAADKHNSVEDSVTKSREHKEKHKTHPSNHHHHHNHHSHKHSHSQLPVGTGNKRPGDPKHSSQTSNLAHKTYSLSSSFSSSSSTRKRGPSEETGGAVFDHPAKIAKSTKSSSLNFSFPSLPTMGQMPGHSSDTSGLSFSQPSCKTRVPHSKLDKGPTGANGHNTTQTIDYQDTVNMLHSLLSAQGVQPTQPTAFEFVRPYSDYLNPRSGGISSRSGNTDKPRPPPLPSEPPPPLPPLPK
# ASSAY_NAME: Cdk9/CyclinT1 IMAP Protocol (fluorescence polarization kinase assay)
# STATED_CONDITIONS: Table 2; generated using one of the two Cdk9/cyclinT1 assays (IMAP or Alpha Screen), not specified which; unit inferred
Give bare numbers, in nM.

Sample answers from the record:
Reported IC50, compound O[C@H]1CC[C@H](Nc2cc(-c3cncc(NCC4CCOCC4)n3)c(Cl)cn2)CC1 : ____
7.94

Return reported IC50; argument: Clc1cccc(CNc2cccc(-c3cc(NC4CCNCC4)ncc3Cl)n2)c1
35.2

Tell me the measured IC50 of NC[C@H]1CC[C@H](Nc2cc(-c3cccc(NCc4cccc(OC(F)F)c4)n3)c(Cl)cn2)CC1 , please.
54.6

Provide IC50 values for the following items, in order.
1. O=C(N[C@H]1CC[C@H](Nc2cc(-c3cccc(NCc4cccc(F)c4)n3)c(Cl)cn2)CC1)c1cccnc1
2. OCCN[C@H]1CC[C@H](Nc2cc(-c3cccc(NCc4cccc(F)c4)n3)c(Cl)cn2)CC1
3. CN1CCN(C[C@H]2CC[C@H](Nc3cc(-c4cccc(NCc5cccc(F)c5)n4)c(Cl)cn3)CC2)CC1
4. CCN(CC)[C@H]1CC[C@H](Nc2cc(-c3cccc(NCC4(C#N)CCOCC4)n3)c(Cl)cn2)CC1

[54.2, 7.95, 30.8, 1]
